# collection of ΔTm values tested on Serine/threonine-protein kinase 16 (Homo sapiens)

compound: N#C/C(=C\c1ccc(O)c(O)c1)C(=O)Nc1ccccc1
target_of_assay: Serine/threonine-protein kinase 16 (Homo sapiens)
ΔTm / °C: 0.1

compound: O=c1c2ccccc2[nH]c(=S)n1CCN1CCC(=C(c2ccc(F)cc2)c2ccc(F)cc2)CC1 [DIACYLGLYCEROL KINASE INHIBITOR II]
target_of_assay: Serine/threonine-protein kinase 16 (Homo sapiens)
ΔTm / °C: 0.3

compound: COC1=C2C[C@@H](C)C[C@H](OC)[C@H](O)[C@@H](C)/C=C(\C)[C@H](OC(N)=O)[C@@H](OC)/C=C\C=C(/C)C(=O)NC(=CC1=O)C2=O
target_of_assay: Serine/threonine-protein kinase 16 (Homo sapiens)
ΔTm / °C: 0.4

compound: O=C1NC(=O)C(c2cn(CCCn3ccnc3)c3ccccc23)=C1Nc1ccccc1
target_of_assay: Serine/threonine-protein kinase 16 (Homo sapiens)
ΔTm / °C: 0.6

compound: O=C1NC(=O)c2c1c1c3ccccc3n3c1c1c2c2ccccc2n1C1CCC3O1
target_of_assay: Serine/threonine-protein kinase 16 (Homo sapiens)
ΔTm / °C: 1.7

compound: Cc1cc(Nc2nc(-c3ccccc3)nc3ccccc23)n[nH]1
target_of_assay: Serine/threonine-protein kinase 16 (Homo sapiens)
ΔTm / °C: 5.6

compound: OC[C@H]1O[C@@H](n2cnc3cc(Cl)c(Cl)cc32)[C@H](O)[C@@H]1O
target_of_assay: Serine/threonine-protein kinase 16 (Homo sapiens)
ΔTm / °C: 1.1

compound: Cc1cc(C=C2C(=O)C=CC2=O)cc(C)c1O
target_of_assay: Serine/threonine-protein kinase 16 (Homo sapiens)
ΔTm / °C: 3.2

compound: Oc1cc(O)cc(/C=C/c2ccc(O)c(O)c2)c1 [PICEATANNOL]
target_of_assay: Serine/threonine-protein kinase 16 (Homo sapiens)
ΔTm / °C: 4.4

compound: CC(C)n1cnc2c(NCc3ccccc3)nc(NCCCO)nc21
target_of_assay: Serine/threonine-protein kinase 16 (Homo sapiens)
ΔTm / °C: 0.6

compound: NC1=N/C(=C2/CCNC(=O)c3[nH]ccc32)C(=O)N1 [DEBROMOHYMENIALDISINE]
target_of_assay: Serine/threonine-protein kinase 16 (Homo sapiens)
ΔTm / °C: 0.4

compound: O=c1cc(N2CCOCC2)oc2c1ccc1ccccc12
target_of_assay: Serine/threonine-protein kinase 16 (Homo sapiens)
ΔTm / °C: 0.4

compound: O=C1C=C2C(=Nc3c2c2c(c4c3=NC3=C4CCC=C3)C=NC=2)CC1
target_of_assay: Serine/threonine-protein kinase 16 (Homo sapiens)
ΔTm / °C: 11.5

compound: C#Cc1cccc(Nc2ncnc3cc(OCCOC)c(OCCOC)cc23)c1
target_of_assay: Serine/threonine-protein kinase 16 (Homo sapiens)
ΔTm / °C: 0.7

compound: c1ccc(-c2n[nH]c3c2oc2ccccc23)cc1
target_of_assay: Serine/threonine-protein kinase 16 (Homo sapiens)
ΔTm / °C: 6.8

compound: C[S+]([O-])c1ccc(-c2nc(-c3ccc(F)cc3)c(-c3ccncc3)[nH]2)cc1 (centres undefined) [SB-203580]
target_of_assay: Serine/threonine-protein kinase 16 (Homo sapiens)
ΔTm / °C: 0.4

compound: Oc1cccc(-c2nc(N3CCOCC3)c3oc4ncccc4c3n2)c1
target_of_assay: Serine/threonine-protein kinase 16 (Homo sapiens)
ΔTm / °C: 0.3

compound: Nc1nccc(-c2c(-c3ccc(F)cc3)ncn2C2CCNCC2)n1
target_of_assay: Serine/threonine-protein kinase 16 (Homo sapiens)
ΔTm / °C: -0.1

compound: O=S(=O)(NCCNC/C=C/c1ccc(Br)cc1)c1cccc2cnccc12
target_of_assay: Serine/threonine-protein kinase 16 (Homo sapiens)
ΔTm / °C: 0.5

compound: O=C(O)c1cc(N(Cc2ccccc2O)Cc2cc(O)ccc2O)ccc1O [LAVENDUSTIN A]
target_of_assay: Serine/threonine-protein kinase 16 (Homo sapiens)
ΔTm / °C: 2.6

compound: C[S+]([O-])c1ccc(CSc2nc(-c3ccc(F)cc3)c(-c3ccncc3)[nH]2)cc1 (centres undefined)
target_of_assay: Serine/threonine-protein kinase 16 (Homo sapiens)
ΔTm / °C: 0.5

compound: COC(=O)[C@]1(O)C[C@@H]2O[C@@]1(C)n1c3ccccc3c3c4c(c5c6ccccc6n2c5c31)C(=O)NC4 (single isomer, unassigned)
target_of_assay: Serine/threonine-protein kinase 16 (Homo sapiens)
ΔTm / °C: 2.3

compound: CC(C)N(CCO)c1nc(Nc2cccc(Cl)c2)c2ncn(C(C)C)c2n1
target_of_assay: Serine/threonine-protein kinase 16 (Homo sapiens)
ΔTm / °C: 3.1

compound: Cn1cc(C2=C(c3cn(CCCN)c4ccccc34)C(=O)NC2=O)c2ccccc21
target_of_assay: Serine/threonine-protein kinase 16 (Homo sapiens)
ΔTm / °C: 4.3

compound: COc1cc2ncnc(Nc3cccc(O)c3)c2cc1OC
target_of_assay: Serine/threonine-protein kinase 16 (Homo sapiens)
ΔTm / °C: 0.4

compound: N#CC(C#N)=Cc1ccc(O)c(O)c1 [TYRPHOSTIN 23]
target_of_assay: Serine/threonine-protein kinase 16 (Homo sapiens)
ΔTm / °C: 0.4

compound: COc1nccc(-c2c(-c3ccc(F)cc3)ncn2[C@H]2CC[C@H](O)CC2)n1
target_of_assay: Serine/threonine-protein kinase 16 (Homo sapiens)
ΔTm / °C: -0.2

compound: Cc1[nH]c(/C=C2\C(=O)Nc3ccc(S(=O)(=O)N(C)c4cccc(Cl)c4)cc32)c(C)c1C(=O)N1CCN(C)CC1
target_of_assay: Serine/threonine-protein kinase 16 (Homo sapiens)
ΔTm / °C: 0.6

compound: CC(C)n1cnc2/c(=N/c3cccc(Cl)c3)nc(NCCO)[nH]c21
target_of_assay: Serine/threonine-protein kinase 16 (Homo sapiens)
ΔTm / °C: 2.6

compound: CN[C@@H]1CC2O[C@@](C)([C@@H]1OC)n1c3ccccc3c3c4c(c5c6ccccc6n2c5c31)C(=O)NC4
target_of_assay: Serine/threonine-protein kinase 16 (Homo sapiens)
ΔTm / °C: 9.6

compound: CCCCc1c(-c2ccc(O)cc2)[nH]c2nccnc12 [ALOISINE A]
target_of_assay: Serine/threonine-protein kinase 16 (Homo sapiens)
ΔTm / °C: 2.6

compound: CSc1nc(-c2ccc(F)cc2)c(-c2ccnc(NC(C)c3ccccc3)c2)[nH]1 (racemic)
target_of_assay: Serine/threonine-protein kinase 16 (Homo sapiens)
ΔTm / °C: -0.1

compound: O=C1NC(=O)C(c2c[nH]c3ccccc23)=C1c1c[nH]c2ccccc12
target_of_assay: Serine/threonine-protein kinase 16 (Homo sapiens)
ΔTm / °C: 3.5

compound: Cc1ccc(NC(=O)c2cccc(N(C)C)c2)cc1NC(=O)c1ccc(O)cc1
target_of_assay: Serine/threonine-protein kinase 16 (Homo sapiens)
ΔTm / °C: 0.5

compound: COc1cc(/C=C/C(=O)CC(=O)/C=C/c2ccc(O)c(OC)c2)ccc1O [CURCUMIN]
target_of_assay: Serine/threonine-protein kinase 16 (Homo sapiens)
ΔTm / °C: 0.9

compound: N#C/C(=C\c1ccc(O)c(O)c1)C(=O)NCc1ccccc1
target_of_assay: Serine/threonine-protein kinase 16 (Homo sapiens)
ΔTm / °C: 0.4

compound: O=C1Nc2ccc(I)cc2/C1=C1/Nc2ccccc2/C1=N\O
target_of_assay: Serine/threonine-protein kinase 16 (Homo sapiens)
ΔTm / °C: 1.9

compound: COc1cc(O)c2c(c1)oc(=O)c1c3cc(O)c(O)cc3oc21 [WEDELOLACTONE]
target_of_assay: Serine/threonine-protein kinase 16 (Homo sapiens)
ΔTm / °C: 0.1

compound: Cn1cc(C2=C(c3cn(CCCSC(=N)N)c4ccccc34)C(=O)NC2=O)c2ccccc21
target_of_assay: Serine/threonine-protein kinase 16 (Homo sapiens)
ΔTm / °C: 3.9
